- Test system: Pseudomonas aeruginosa LL-1244
- ASSAY: in vitro antibacterial MIC, agar plate dilution
- Type: cell-based
- APPLIED CONDITIONS: 18 hours, 35° C.
- Method: The in vitro antimicrobial spectrum of the compounds of ths invention were determined by the agar plate dilution method with Mueller-Hinton agar and an inoculum of each test organism of approximately 10^4 colony forming units delivered by the Steers replicating device. The minimal inhibitory concentration (MIC) in mcg/ml is defined as the lowest concentration of test compound that inhibited visible growth after 18 hours incubation at 35° C. […]
What MIC was measured for each of the following?
Response body: numeric value in mg/L, unit text excluded.

MIC for O=C(O)c1cn(C2CC2)c2cc(N3CCNC(C4CC4)C3)c(F)cc2c1=O (centres unmarked) [Example 96] is 1

MIC for CCn1cc(C(=O)O)c(=O)c2cc(F)c(N3CCNC(CF)C3)c(F)c21 (single isomer, unassigned; (+)) is 8

MIC for O=C(O)c1cn(C2CC2)c2cc(N3CCNC(c4ccsc4)C3)c(F)cc2c1=O (centres unmarked) is 4

MIC for CCn1cc(C(=O)O)c(=O)c2cc(F)c(N3CCN(C)C(CF)C3)c(F)c21 (single isomer, unassigned; (+)) is 16

MIC for O=C(O)c1cn(C2CC2)c2cc(N3CCNC(C4CC4)C3)c(F)cc2c1=O (centres unmarked) [Example 124] is 4

Origin of the recorded values: patent US5210193A
